The origin of these recorded values is patent US9340577B2.

- TARGET_ENTITY: A31 (A*3101) (Homo sapiens, UniProt P04439, A270S/D185E/E176V/E277Q/F33T/G231S/G80R/H175R/I121M/I218V/I322F/K168Q/L300P/L318F/M331R/P217A/Q94H/R138Q/T323A/T345S/T97I/V358M)
- EXPERIMENT_DESCRIPTION: biochemical
Quick reference: pIC50 of the listed items.
Keep in mind that pIC50 stands for -log10 of concentration in molar terms.

# count of solved cases: 2
# MOLECULE, READOUT_TYPE, NUMBER
data = [
    ("CSCC[C@H](NC(=O)[C@@H](NC(=O)[C@H](C)N)[C@@H](C)O)C(=O)N[C@@H](CS)C(=O)N[C@@H](CCCCN)C(=O)N[C@@H](Cc1c[nH]cn1)C(=O)N[C@@H](Cc1ccc(O)cc1)C(=O)N[C@@H](CCCNC(=N)N)C(=O)N[C@@H](CCCNC(=N)N)C(=O)O [Peptide 88.0343]", "pIC50", 7.64),
    ("CC(C)C[C@H](NC(=O)[C@H](CCCNC(=N)N)NC(=O)[C@H](Cc1ccccc1)NC(=O)CNC(=O)[C@@H](N)Cc1ccc(O)cc1)C(=O)NCC(=O)N[C@@H](Cc1ccccc1)C(=O)N[C@@H](CC(C)C)C(=O)N[C@@H](Cc1c[nH]cn1)C(=O)O [Peptide 1556.26]", "pIC50", 5.49),
]

Now consider a different molecule.
Please report the recorded pIC50 for CC(C)C[C@H](NC(=O)[C@H](CO)NC(=O)[C@@H](N)CCCNC(=N)N)C(=O)N[C@@H](Cc1ccc(O)cc1)C(=O)N[C@@H](CC(N)=O)C(=O)N[C@H](C(=O)N[C@H](C(=O)N[C@@H](C)C(=O)N[C@H](C(=O)N[C@@H](CC(C)C)C(=O)N[C@@H](Cc1ccc(O)cc1)C(=O)O)[C@@H](C)O)C(C)C)[C@@H](C)O [Peptide 1595.06] . 5.03

###

- TARGET_ENTITY: DRB1*0405 (Homo sapiens, UniProt P01903+P01911, A100R/A169T/D86S/F76Y/I96L/K127E/L162R/M171V/N62H/P40V/Q125Y/R42H/S133A/S149N/S66Y/V115G/V209L/W38E)
- EXPERIMENT_DESCRIPTION: biochemical
- Format: binding
READOUT_TYPE: IC50

Below: 6 compounds and their reported IC50.
# COMPOUND, IC50
records = [
    ("CC[C@H](C)[C@H](NC(=O)[C@H](Cc1c[nH]cn1)NC(=O)[C@H](C)NC(=O)[C@H](Cc1ccc(O)cc1)NC(=O)[C@H](CC(C)C)NC(=O)[C@@H](NC(=O)[C@H](C)NC(=O)[C@@H]1CCCN1C(=O)[C@H](CCCCN)NC(=O)[C@@H](NC(=O)[C@H](CC(C)C)NC(=O)[C@@H](NC(=O)[C@H](CCCCN)NC(=O)[C@@H](N)Cc1ccccc1)[C@@H](C)O)[C@@H](C)CC)[C@@H](C)O)C(=O)N[C@@H](CCC(N)=O)C(=O)O [Peptide 89.0082]", "0.014 µM"),
    ("CC[C@H](C)[C@H](NC(=O)CNC(=O)[C@@H](NC(=O)[C@H](CCCCN)NC(=O)[C@H](CCC(=O)O)NC(=O)[C@H](CC(N)=O)NC(=O)CNC(=O)[C@H](C)N)[C@@H](C)O)C(=O)N[C@@H](CC(C)C)C(=O)N[C@H](C(=O)N[C@H](C(=O)N[C@H](C(=O)N[C@@H](Cc1ccc(O)cc1)C(=O)N[C@@H](Cc1c[nH]cn1)C(=O)N[C@@H](CO)C(=O)O)[C@@H](C)O)C(C)C)[C@@H](C)O [Peptide 1601.18]", "6.75 µM"),
    ("CC(C)C[C@H](NC(=O)[C@H](CC(C)C)NC(=O)[C@@H]1CCCN1C(=O)[C@@H](N)CC(N)=O)C(=O)NCC(=O)N[C@@H](C)C(=O)N[C@@H](C)C(=O)N[C@H](C(=O)N1CCC[C@H]1C(=O)N[C@H](C(=O)NCC(=O)N[C@@H](CC(N)=O)C(=O)N[C@@H](CC(N)=O)C(=O)N[C@@H](CCCCN)C(=O)N[C@@H](CCCNC(=N)N)C(=O)O)[C@@H](C)O)[C@@H](C)O [Peptide 89.0165]", "8.25 µM"),
    ("CC[C@H](C)[C@H](NC(=O)CNC(=O)[C@H](CCC(=O)O)NC(=O)[C@H](Cc1c[nH]cn1)NC(=O)[C@@H](NC(=O)[C@H](Cc1ccc(O)cc1)NC(=O)[C@H](Cc1ccc(O)cc1)NC(=O)[C@H](CC(C)C)NC(=O)CN)C(C)C)C(=O)N[C@@H](CCCNC(=N)N)C(=O)N[C@H](C(=O)N[C@@H](Cc1ccc(O)cc1)C(=O)N[C@@H](Cc1ccccc1)C(=O)N[C@H](C(=O)N[C@@H](CCC(N)=O)C(=O)O)C(C)C)[C@@H](C)O [Peptide 90.0171]", "4.66 µM"),
    ("CC[C@H](C)[C@H](NC(=O)[C@H](C)NC(=O)[C@H](CCCCN)NC(=O)[C@H](Cc1c[nH]cn1)NC(=O)[C@H](C)NC(=O)[C@H](CCCCN)NC(=O)[C@H](CO)NC(=O)[C@H](CCCCN)NC(=O)[C@H](CO)NC(=O)[C@@H](NC(=O)[C@H](CC(N)=O)NC(=O)[C@H](Cc1ccc(O)cc1)NC(=O)[C@H](C)N)[C@@H](C)CC)C(=O)N[C@@H](CCC(=O)O)C(=O)N[C@@H](CC(C)C)C(=O)O [Peptide 89.0159]", "> 20 µM"),
    ("CC(C)C[C@H](NC(=O)[C@H](CC(=O)O)NC(=O)[C@@H](NC(=O)[C@@H](NC(=O)[C@H](CCC(=O)O)NC(=O)[C@@H]1CCCN1C(=O)[C@H](CCC(N)=O)NC(=O)[C@H](CC(C)C)NC(=O)[C@H](CC(=O)O)NC(=O)[C@@H](N)CC(C)C)[C@@H](C)O)[C@@H](C)O)C(=O)N[C@@H](Cc1ccc(O)cc1)C(=O)N[C@@H](CS)C(=O)N[C@@H](Cc1ccc(O)cc1)C(=O)N[C@@H](CCC(=O)O)C(=O)N[C@@H](CCC(N)=O)C(=O)O [Peptide 1543.04]", "> 20 µM"),
]

I'd like to know its IC50. The compound in question is CC(C)C[C@H](NC(=O)[C@@H](NC(=O)[C@H](Cc1c[nH]c2ccccc12)NC(=O)[C@H](CC(=O)O)NC(=O)[C@H](CCC(=O)O)NC(=O)[C@@H](NC(=O)[C@H](CCCCN)NC(=O)[C@H](Cc1ccc(O)cc1)NC(=O)[C@H](CCCNC(=N)N)NC(=O)[C@H](CO)NC(=O)[C@@H](N)CCC(N)=O)[C@@H](C)O)[C@@H](C)O)C(=O)N[C@@H](CCC(N)=O)C(=O)N[C@@H](CC(=O)O)C(=O)N[C@H](C(=O)N[C@@H](CS)C(=O)O)[C@@H](C)O [Peptide 90.0179] 1.59 µM

Recorded IC50 of CC(C)C[C@H](NC(=O)[C@H](CCC(N)=O)NC(=O)[C@H](CCCCN)NC(=O)[C@@H](NC(=O)[C@H](CC(C)C)NC(=O)[C@H](CCC(N)=O)NC(=O)[C@@H](NC(=O)[C@H](C)NC(=O)[C@H](CO)NC(=O)[C@@H](NC(=O)[C@@H](NC(=O)[C@H](CC(=O)O)NC(=O)[C@H](CC(=O)O)NC(=O)[C@@H](N)CO)[C@@H](C)O)C(C)C)[C@@H](C)O)C(C)C)C(=O)N[C@@H](CCC(N)=O)C(=O)O [Peptide 1601.13] , please. 16.3 µM

Looking for the measured IC50 of CC(C)C[C@H](NC(=O)[C@H](CCC(N)=O)NC(=O)[C@H](CCCCN)NC(=O)[C@@H](NC(=O)[C@H](CC(C)C)NC(=O)[C@H](CCC(N)=O)NC(=O)[C@@H](NC(=O)[C@H](C)NC(=O)[C@H](CO)NC(=O)[C@@H](NC(=O)[C@@H](NC(=O)[C@H](CC(=O)O)NC(=O)[C@@H](N)CC(=O)O)[C@@H](C)O)C(C)C)[C@@H](C)O)C(C)C)C(=O)N[C@@H](CCC(N)=O)C(=O)N[C@@H](Cc1c[nH]cn1)C(=O)O [Peptide 89.0162] , can you help? 0.674 µM

###

pIC50 reference
- TARGET_ENTITY: DRB1*0301 (Homo sapiens, UniProt P01903+P01911, A100K/A102G/A103R/A169T/F55Y/I96L/K41T/L162R/M171V/P40S/Q125H/Q178H/Q39Y/R42S/S66N/T106N/T262R/W38E/Y61H)
- Sequence (P01903 26-254 limits assumed, other chains not shown): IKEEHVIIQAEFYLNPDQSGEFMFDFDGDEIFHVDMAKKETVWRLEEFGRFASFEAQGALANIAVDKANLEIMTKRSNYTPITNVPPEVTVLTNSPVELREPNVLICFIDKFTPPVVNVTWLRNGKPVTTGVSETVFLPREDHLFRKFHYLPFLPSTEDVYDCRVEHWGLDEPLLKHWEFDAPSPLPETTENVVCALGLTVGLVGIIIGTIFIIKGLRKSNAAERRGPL
- EXPERIMENT_DESCRIPTION: biochemical
pIC50: −log10 of the molar value.

May I ask what pIC50 has been recorded for CC(C)C[C@H](NC(=O)[C@H](CCC(N)=O)NC(=O)[C@H](CCCCN)NC(=O)[C@@H](NC(=O)[C@H](CC(C)C)NC(=O)[C@H](CCC(N)=O)NC(=O)[C@@H](NC(=O)[C@H](C)NC(=O)[C@H](CO)NC(=O)[C@@H](NC(=O)[C@@H](NC(=O)[C@H](CC(=O)O)NC(=O)[C@H](CC(=O)O)NC(=O)[C@@H](N)CO)[C@@H](C)O)C(C)C)[C@@H](C)O)C(C)C)C(=O)N[C@@H](CCC(N)=O)C(=O)O [Peptide 1601.13] ? 4.98

Requested read-out: pIC50. Entry: CC[C@H](C)[C@H](NC(=O)[C@H](Cc1c[nH]c2ccccc12)NC(=O)[C@@H](NC(=O)[C@@H](NC(=O)[C@H](CO)NC(=O)[C@H](CC(C)C)NC(=O)[C@@H](N)[C@@H](C)O)C(C)C)[C@@H](C)O)C(=O)NCC(=O)N[C@@H](C)C(=O)N[C@@H](C)C(=O)N1CCC[C@H]1C(=O)N[C@@H](CC(C)C)C(=O)N[C@H](C(=O)N[C@@H](CC(C)C)C(=O)N[C@@H](CO)C(=O)O)[C@@H](C)CC [Peptide 68.0058] < 4.70

Report pIC50 for CC[C@H](C)[C@H](NC(=O)CNC(=O)[C@H](Cc1ccc(O)cc1)NC(=O)[C@H](CC(C)C)NC(=O)[C@H](CO)NC(=O)[C@H](CC(C)C)NC(=O)[C@H](CC(C)C)NC(=O)[C@H](CO)NC(=O)[C@H](CC(C)C)NC(=O)[C@H](CCC(=O)O)NC(=O)[C@H](CO)NC(=O)[C@@H](N)CC(C)C)C(=O)N[C@@H](Cc1c[nH]cn1)C(=O)N[C@@H](CCCCN)C(=O)N[C@@H](CCC(N)=O)C(=O)O [Peptide 68.0044] please. < 4.70

Param item = CC[C@H](C)[C@H](NC(=O)[C@@H](NC(=O)[C@@H]1CCCN1C(=O)CN)C(C)C)C(=O)N1CCC[C@H]1C(=O)N[C@@H](CCC(N)=O)C(=O)N[C@@H](CC(=O)O)C(=O)N[C@@H](Cc1c[nH]c2ccccc12)C(=O)N[C@@H](CO)C(=O)N[C@H](C(=O)N[C@@H](CCC(=O)O)C(=O)N[C@@H](CS)C(=O)N[C@@H](CCSC)C(=O)N[C@H](C(=O)N[C@H](C(=O)O)[C@@H](C)O)[C@@H](C)O)[C@@H](C)O [Peptide 68.0156] ; retrieve measured pIC50. < 4.70

For CC[C@H](C)[C@H](NC(=O)[C@@H](NC(=O)[C@@H]1CCCN1C(=O)[C@@H](NC(=O)[C@@H](NC(=O)[C@H](CC(N)=O)NC(=O)CNC(=O)[C@H](CO)NC(=O)[C@H](CS)NC(=O)[C@@H](NC(=O)[C@H](CCCCN)NC(=O)[C@@H](N)CCCNC(=N)N)C(C)C)[C@@H](C)O)[C@@H](C)O)[C@@H](C)CC)C(=O)N[C@@H](Cc1c[nH]cn1)C(=O)N[C@@H](CC(C)C)C(=O)N[C@@H](CCCCN)C(=O)O [Peptide 1601.43] , what is its reported pIC50? < 4.70

Item CC(C)[C@H](NC(=O)[C@H](CCC(=O)O)NC(=O)[C@H](Cc1c[nH]c2ccccc12)NC(=O)[C@@H](NC(=O)CNC(=O)[C@@H](NC(=O)[C@H](CC(N)=O)NC(=O)CNC(=O)[C@H](Cc1ccc(O)cc1)NC(=O)[C@H](CCCCN)NC(=O)[C@@H](N)CCC(=O)O)[C@@H](C)O)[C@@H](C)O)C(=O)N[C@@H](Cc1c[nH]cn1)C(=O)N[C@@H](Cc1ccccc1)C(=O)NCC(=O)N[C@@H](CC(N)=O)C(=O)O [Peptide 1601.11] has what recorded pIC50? < 4.70

Suppose we examine the compound CC[C@H](C)[C@H](NC(=O)[C@H](Cc1c[nH]c2ccccc12)NC(=O)[C@H](CCC(=O)O)NC(=O)[C@@H]1CCCN1)C(=O)N[C@@H](CCC(N)=O)C(=O)N[C@@H](CCCNC(=N)N)C(=O)N[C@@H](CCC(N)=O)C(=O)N[C@H](C(=O)N[C@H](C(=O)N[C@@H](CC(C)C)C(=O)N[C@@H](CCC(N)=O)C(=O)N[C@@H](Cc1c[nH]cn1)C(=O)N[C@@H](CO)C(=O)N[C@@H](Cc1ccccc1)C(=O)N[C@@H](CC(N)=O)C(=O)O)C(C)C)[C@@H](C)O [Peptide 89.0011] ; what pIC50 value has been reported? 6.81

I am curious: what pIC50 value has been reported for CC[C@H](C)[C@H](NC(=O)[C@@H]1CCCN1C(=O)[C@@H](N)CC(N)=O)C(=O)N[C@@H](CC(C)C)C(=O)N[C@@H](CC(C)C)C(=O)N[C@@H](Cc1c[nH]c2ccccc12)C(=O)N[C@@H](CCC(N)=O)C(=O)N1CCC[C@H]1C(=O)N[C@H](C(=O)N1CCC[C@H]1C(=O)N[C@H](C(=O)N[C@@H](Cc1c[nH]cn1)C(=O)N[C@H](C(=O)N[C@H](C(=O)N1CCC[C@H]1C(=O)O)C(C)C)[C@@H](C)O)C(C)C)[C@@H](C)CC [Peptide 68.0036] ? < 4.70

What value of pIC50 has been reported for the following compound? CC[C@H](C)[C@H](NC(=O)[C@H](CCC(N)=O)NC(=O)[C@@H](N)CCCNC(=N)N)C(=O)N[C@@H](Cc1ccc(O)cc1)C(=O)N[C@H](C(=O)N[C@@H](C)C(=O)N[C@@H](C)C(=O)N[C@@H](Cc1ccccc1)C(=O)N[C@H](C(=O)N[C@H](C(=O)N[C@@H](CCC(N)=O)C(=O)N[C@@H](C)C(=O)N[C@@H](C)C(=O)N[C@@H](C)C(=O)N[C@@H](CCC(=O)O)C(=O)O)C(C)C)[C@@H](C)O)C(C)C [Peptide 68.0134] < 4.70
